Details: rat, in vivo
READOUT KIND: % Enhancement in bioavailability, Carum carvi + Zingiber officinale, Frac 1. (Cc) (%)
Answers are plain numbers, in %.

Known % Enhancement in bioavailability, Carum carvi + Zingiber officinale, Frac 1. (Cc) results, listed for orientation:
{"columns": ["STRUCTURE NOTATION", "OBSERVED"],
 "data": [
  ["CC(C)[C@H](N)C(=O)O", 38],
  ["CC(C)C[C@H](N)C(=O)O", 40]
]}

Kindly review the next compound as well.
// % Enhancement in bioavailability, Carum carvi + Zingiber officinale, Frac 1. (Cc) value for CC[C@H](C)[C@H](N)C(=O)O : 50

Hello, the source for this data is patent US20080292736A1, in case you need it.
